GI50 values for the compounds below.
# Target Desc: Ba/F3 EGFR Del19/C797S mutants (Homo sapiens, UniProt P00533, C797S, cells depend on it, form not given)
# Sequence (P00533 with tags, fused parts or gaps DEL746-750/C797S, form open): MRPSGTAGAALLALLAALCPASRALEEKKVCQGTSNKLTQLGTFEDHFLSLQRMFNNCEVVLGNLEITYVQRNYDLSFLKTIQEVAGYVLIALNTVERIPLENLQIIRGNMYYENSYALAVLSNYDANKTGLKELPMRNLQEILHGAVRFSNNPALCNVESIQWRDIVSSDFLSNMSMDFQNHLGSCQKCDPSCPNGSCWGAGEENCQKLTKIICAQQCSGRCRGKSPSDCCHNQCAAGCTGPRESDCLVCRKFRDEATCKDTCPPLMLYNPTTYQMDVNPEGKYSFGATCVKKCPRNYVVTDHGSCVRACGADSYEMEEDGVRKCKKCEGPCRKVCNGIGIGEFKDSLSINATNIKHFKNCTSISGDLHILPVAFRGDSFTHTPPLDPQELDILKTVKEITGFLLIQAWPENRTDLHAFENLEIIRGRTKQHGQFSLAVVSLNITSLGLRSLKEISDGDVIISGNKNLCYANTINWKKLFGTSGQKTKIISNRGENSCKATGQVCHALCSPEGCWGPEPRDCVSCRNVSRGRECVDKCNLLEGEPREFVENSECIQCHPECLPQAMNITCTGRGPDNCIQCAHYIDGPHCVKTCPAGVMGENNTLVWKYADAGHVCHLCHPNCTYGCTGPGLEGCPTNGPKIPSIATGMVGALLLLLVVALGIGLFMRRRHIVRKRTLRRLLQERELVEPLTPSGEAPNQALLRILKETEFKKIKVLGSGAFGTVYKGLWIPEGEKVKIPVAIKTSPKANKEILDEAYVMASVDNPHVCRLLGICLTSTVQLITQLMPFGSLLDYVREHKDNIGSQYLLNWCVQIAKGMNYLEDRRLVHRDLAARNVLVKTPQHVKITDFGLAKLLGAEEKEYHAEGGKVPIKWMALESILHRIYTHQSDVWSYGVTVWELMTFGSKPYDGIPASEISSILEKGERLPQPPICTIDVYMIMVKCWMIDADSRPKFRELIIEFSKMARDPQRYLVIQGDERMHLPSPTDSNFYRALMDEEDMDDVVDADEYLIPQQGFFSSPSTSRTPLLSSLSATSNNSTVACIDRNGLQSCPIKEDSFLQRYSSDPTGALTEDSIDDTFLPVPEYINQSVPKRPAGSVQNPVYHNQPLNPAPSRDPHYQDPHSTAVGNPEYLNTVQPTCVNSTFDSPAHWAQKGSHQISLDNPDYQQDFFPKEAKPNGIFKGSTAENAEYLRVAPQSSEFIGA
# Procedure Text: CellTiter-Glo cell viability, Ba/F3 EGFR Del19/C797S cells
# Type: cell-based, murine
# Experimental Setup: 72 hours, read-out: Ba/F3 EGFR mutant cell (IC50, nM) D/C
Give a bare numeral; the unit nM is implied.

Field: example entries. Status: answers known.
Dear colleague, please send me the reported GI50 for `COc1cc(N2CCC(N3CCCC3)CC2)c(C)cc1Nc1ncc(Cl)c(Nc2ccc3c(c2NS(C)(=O)=O)OCCO3)n1` when you can.
10

Dear colleague, please send me the reported GI50 for CCc1cc(Nc2ncc(Br)c(Nc3cccc(OC)c3N(C)S(C)(=O)=O)n2)c(OC)cc1N1CCC(N2CCN(C)CC2)CC1 [Example C7] when you can.
10

Dear colleague, please send me the reported GI50 for `COc1cc(N2CCC(N3CCN(C)CC3)CC2)c(C)cc1Nc1ncc(F)c(Nc2ccc3nccnc3c2NS(C)(=O)=O)n1` when you can.
73

# evaluate next
Dear colleague, please send me the reported GI50 for `CCc1cc(Nc2ncc(Br)c(Nc3cccc(OC)c3NS(C)(=O)=O)n2)c(OC)cc1N1CCC(N2CCN(C)CC2)CC1` when you can.
5

====

# Target Desc: Ba/F3 EGFR Del19/C797S mutants (Homo sapiens, UniProt P00533, C797S, cells depend on it, form not given)
# Procedure Text: CellTiter-Glo cell viability, Ba/F3 EGFR Del19/C797S cells
# Format: cell-based, murine
# Experimental Setup: 72 hours, read-out: Ba/F3 EGFR mutant cell (IC50, nM) D/C
Outcome Measure: GI50 (nM)
Give a bare numeral; the unit nM is implied.

Field: example entries. Status: answers known.
Dear colleague, please send me the reported GI50 for `CCS(=O)(=O)Nc1c(Nc2nc(Nc3cc(C)c(N4CCC(N5CCN(C)CC5)CC4)cc3OC)ncc2Br)ccc2nccnc12` when you can.
49

Dear colleague, please send me the reported GI50 for `COc1cc(N2CCC(N3CCN(C)C4(CC4)C3)CC2)ccc1Nc1ncc(Cl)c(Nc2ccc3nccnc3c2NS(C)(=O)=O)n1` when you can.
295

# evaluate next
Dear colleague, please send me the reported GI50 for `COc1cc(N2CCC(N3CCN(C)CC3)CC2)c(F)cc1Nc1ncc(Br)c(Nc2ccc3nccnc3c2NS(C)(=O)=O)n1` when you can.
101

====

GI50 values for the molecules below.
# Target Desc: Ba/F3 EGFR Del19/C797S mutants (Homo sapiens, UniProt P00533, C797S, cells depend on it, form not given)
# Procedure Text: CellTiter-Glo cell viability, Ba/F3 EGFR Del19/C797S cells
# Assay type: cell-based, murine
# Experimental Setup: 72 hours, read-out: Ba/F3 EGFR mutant cell (IC50, nM) D/C
Give a bare numeral; the unit nM is implied.

Field: example entries. Status: answers known.
Dear colleague, please send me the reported GI50 for `COc1cc(N2CCC(N3CCCC3)CC2)c(C)cc1Nc1ncc(Br)c(Nc2cccc(OC)c2NS(C)(=O)=O)n1` when you can.
18

Dear colleague, please send me the reported GI50 for `CCCc1cc(Nc2ncc(F)c(Nc3ccc4nccnc4c3NS(C)(=O)=O)n2)c(OC)cc1N1CCC(N2CCN(C)CC2)CC1` when you can.
11

# evaluate next
Dear colleague, please send me the reported GI50 for `CCc1cc(Nc2ncc(Br)c(Nc3ccc4nccnc4c3NS(C)(=O)=O)n2)c(OC)cc1N1CCC(N(C)C)CC1` when you can.
28
